Data origin: patent US10167262B2

- Tested on: large (Lg) crabgrass (Digitaria sanguinalis)
- METHOD: Test C pre-/postemergence greenhouse test, plant response rating 0-100
- Format: in vivo
- CONDITIONS: Postemergence, 125 g ai/ha
READOUT_NAME: Plant response rating (0 to 100), Crabgrass, Large

>>> reading("O=C(c1ccccc1)c1cn(S(=O)(=O)C(F)(F)F)nc1-c1cc(Cl)cc(Cl)c1")
0
>>> reading("CCn1cc(C(=O)c2cccs2)c(-c2cc(Cl)cc(Cl)c2)n1")
5
>>> reading("ON=C(c1ccccc1)c1c[nH]nc1-c1cc(Cl)cc(Cl)c1")
0
>>> reading("C=CCn1cc(C(=O)c2ccccc2)c(-c2cc(Cl)cc(Cl)c2)n1")
5
